# Activity per record follows
- Assay Method Text: Antioxidant activity assessed as trolox equivalent of ferric ion reducing activity using fe3+-TPTZ after 4 mins by FRAP assay
- Format: functional
Give just the numeric value; equiv need not be written.

Entry Oc1cc(O)c2c(c1)OC(c1ccc(O)c(O)c1)C(O)C2 (stereo not given) , Activity reported as 0.56

Entry O=c1c(O[C@@H]2O[C@H](CO)[C@@H](O)[C@H](O)[C@H]2O)c(-c2ccc(O)c(O)c2)oc2cc(O)cc(O)c12 , Activity reported as 0.56

###

- Assay Method Text: Antioxidant activity assessed as trolox equivalent of ferric ion reducing activity using fe3+-TPTZ after 4 mins by FRAP assay
- Type: functional
Property Label: Activity (equiv)
Give just the numeric value; equiv need not be written.

These recorded examples may help you get a feel for the data.
C[C@@H]1O[C@@H](Oc2cc(O)cc(O)c2C(=O)CCc2ccc(O)c(O)c2)[C@H](O)[C@H](O)[C@H]1O :: 0.72
O=c1c(O)c(-c2ccc(O)cc2)oc2cc(O)cc(O)c12 :: 2.36

API: the following record is the query input.
Entry O=C(CCc1ccc(O)c(O)c1)c1c(O)cc(O)cc1O , Activity reported as 0.64
